- System: IL-23 induced STAT3 signaling (IL-23 receptor) in HEK-Blue IL-23 cells
- measurement.notes: Inhibition of IL-23 induced STAT3 signaling in HEK-Blue IL-23 cells, SEAP reporter (Table 9)
- Assay type: cell-based
- assay.context: human IL23 0.25 ng/ml, overnight, read-out: Inhibition of IL-23 induced pSTAT3 (IC50 nM)
Numbered stars: 1 amine (or outer) side, 2 acyl side, 3 side chain; on linkers, the order of the positions; unused ones are H or OH. Bridge positions count the residues as written; N and C are the ends. Square brackets hold non-standard residues; d marks the D form. Peptide text beside a SMILES is read from it. * marks the point of attachment. Lys(Me,(CH2)4NMe(CH2)5CO) = CN(CCCCCC(=O)[*:3])CCCCN(C)CCCC[C@H](N[*:1])C(=O)[*:2]; Lys(Me,(CH2)4NMe(CH2)4CO) = CN(CCCCC(=O)[*:3])CCCCN(C)CCCC[C@H](N[*:1])C(=O)[*:2]; Trp(7-Me) = Cc1cccc2c(C[C@H](N)C(=O)O)c[nH]c12; αMeLys(Me2) = CN(C)CCCC[C@](C)(N)C(=O)O; 2Nal = N[C@@H](Cc1ccc2ccccc2c1)C(=O)O; 3Pal = N[C@@H](Cc1cccnc1)C(=O)O; Aun = NCCCCCCCCCCC(=O)O; Thp = NC1(C(=O)O)CCOCC1; Me2NCH2CH2 = CN(C)CC*; Aib = CC(C)(N)C(=O)O; Aoc = NCCCCCCCC(=O)O; Sar = CNCC(=O)O
Collected IC50 values appear next to each entry.
Answer with a number only, understood to be in nM.

The following compounds have reported results that may help.
So the reported IC50 for CC(=O)NCCCC[C@@H]1NC(=O)[C@H](Cc2c[nH]c3c(C)cccc23)NC(=O)CCCCCCCCCCNC(=O)CC[C@@H](C(=O)N[C@@H](CC(N)=O)C(=O)N[C@@H](Cc2cccnc2)C(=O)N(C)CC(N)=O)NC(=O)C(C)(C)NC(=O)[C@H](Cc2ccc3ccccc3c2)NC(=O)[C@H](Cc2ccc(OCCN(C)C)cc2)NC(=O)C2(CCOCC2)NC1=O [compound 16] ([Aun][Trp(7-Me)]K(Ac)[Thp]Y(Me2NCH2CH2)[2Nal][Aib]EN[3Pal][Sar]-NH2; lactam N-8) , on IL-23 induced STAT3 signaling (IL-23 receptor) in HEK-Blue IL-23 cells, turned out to be 0.37

Test item CC(=O)NCCCC[C@@H]1NC(=O)[C@H](Cc2c[nH]c3c(C)cccc23)NC(=O)CCCCCN(C)CCCCN(C)CCCC[C@@H](C(=O)N[C@@H](CC(N)=O)C(=O)N[C@@H](Cc2cccnc2)C(=O)N(C)CC(N)=O)NC(=O)[C@](C)(CCCCN(C)C)NC(=O)[C@H](Cc2ccc3ccccc3c2)NC(=O)[C@H](Cc2ccc(OCCN(C)C)cc2)NC(=O)C2(CCOCC2)NC1=O [compound 34] ([Trp(7-Me)]K(Ac)[Thp]Y(Me2NCH2CH2)[2Nal][αMeLys(Me2)][Lys(Me,(CH2)4NMe(CH2)5CO)]N[3Pal][Sar]-NH2; lactam N-7) ; IL-23 induced STAT3 signaling (IL-23 receptor) in HEK-Blue IL-23 cells; reported IC50 was 1.34

Value sought: IC50, system IL-23 induced STAT3 signaling (IL-23 receptor) in HEK-Blue IL-23 cells, item Cc1cccc2c(C[C@@H]3NC(=O)CCCCN(C)CCCCN(C)CCCC[C@@H](C(=O)N[C@@H](CC(N)=O)C(=O)N[C@@H](Cc4cccnc4)C(=O)N(C)CC(N)=O)NC(=O)C(C)(C)NC(=O)[C@H](Cc4ccc5ccccc5c4)NC(=O)[C@H](Cc4ccc(OCCN(C)C)cc4)NC(=O)C4(CCOCC4)NC(=O)[C@H](CCC(N)=O)NC3=O)c[nH]c12 [compound 46] ([Trp(7-Me)]Q[Thp]Y(Me2NCH2CH2)[2Nal][Aib][Lys(Me,(CH2)4NMe(CH2)4CO)]N[3Pal][Sar]-NH2; lactam N-7) . Result: 0.72

Param item: Cc1cccc2c(C[C@@H]3NC(=O)CCCCCCCNC(=O)CC[C@@H](C(=O)N[C@@H](CC(N)=O)C(=O)N[C@@H](Cc4cccnc4)C(=O)N(C)CC(N)=O)NC(=O)C(C)(C)NC(=O)[C@H](Cc4ccc5ccccc5c4)NC(=O)[C@H](Cc4ccc(OCCN(C)C)cc4)NC(=O)C4(CCOCC4)NC(=O)[C@H](CCC(N)=O)NC3=O)c[nH]c12 [compound 6] ([Aoc][Trp(7-Me)]Q[Thp]Y(Me2NCH2CH2)[2Nal][Aib]EN[3Pal][Sar]-NH2; lactam N-8) ; param system: IL-23 induced STAT3 signaling (IL-23 receptor) in HEK-Blue IL-23 cells; output IC50: 4.77

Okay, next one:
Observed IC50 on IL-23 induced STAT3 signaling (IL-23 receptor) in HEK-Blue IL-23 cells, entry CC(=O)NCCCC[C@@H]1NC(=O)[C@H](Cc2c[nH]c3c(C)cccc23)NC(=O)CCCCN(C)CCCCN(C)CCCC[C@@H](C(=O)NCC(=O)N[C@@H](Cc2cccnc2)C(=O)N(C)CC(N)=O)NC(=O)C(C)(C)NC(=O)[C@H](Cc2ccc3ccccc3c2)NC(=O)[C@H](Cc2ccc(OCCN(C)C)cc2)NC(=O)C2(CCOCC2)NC1=O [compound 29] ([Trp(7-Me)]K(Ac)[Thp]Y(Me2NCH2CH2)[2Nal][Aib][Lys(Me,(CH2)4NMe(CH2)4CO)]G[3Pal][Sar]-NH2; lactam N-7) , equals 2.75
